B1: NELF-E aptamer (parent)
chain: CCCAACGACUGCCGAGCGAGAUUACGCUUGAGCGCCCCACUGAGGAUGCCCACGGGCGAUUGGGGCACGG

Variants of: B1
Experiment: HiTS-RAP
Conditions: with NELF-E (Drosophila)
Overview of recorded pKd for various variants
Lab note — pKd values are minus log10 of concentrations in M.

# Variant, pKd
data = [
    ("U60A", 8.02),
    ("G14A", 8.31),
    ("C27U", 8.38),
    ("A4C G7U", 8.16),
    ("A4C A8G", 8.17),
]

Ask | Give the measured pKd of A5C A8U .
Reply | 8.08

Ask | Returns the measured pKd for the input variant. Input: U47G G48U
Reply | 8.21

Ask | Can you look up the measured pKd of A5G U28G for me?
Reply | 8.11
